Cited source for all entries: patent US20210070881A1

This section presents binders with their documented koff values.
- testedOn: T1, recombinant BACE1 (BACE1 extracellular domain, R&D Systems Cat#931-AS) (UniProt P56817 22-457)
- T1 construct: extracellular domain; also called BACE1 extracellular domain protein
- experimentalDetails: SPR Biacore T200, IgG captured, BACE1 analyte
Your answer should be a plain number; it is taken to be in s⁻¹.

{"columns": ["binder", "assayValue"],
 "data": [
  ["1F1 (antibody, human IgG1, V domains shown, chimeric, human IgG1/kappa; also called Clone 1F1) VH: EVQLQQSGAELMKPGASVKLSCKATGYTFIGYWIDWVKQRPGHGLEWIGEILPGGGSTNHNEKFKGKATFTTDTSSNTVYMQLSSLTTEDSAIYYCAREGSYGNYYFDYWGQGTSVTVSS VL: DIQMTQTPLSLPVSLGDQASISCRSSQSIVHSNGNTYLEWYLQKPGQSPKLLIYKVSNRFSGVPDRFSGSGSGTDFTLKISRVEAEDLGVYYCFQGSHVPYTFGGGTKLEIK", 0.00024],
  ["2E1 (antibody, human IgG1, V domains shown, chimeric, human IgG1/kappa; also called Clone 2E1) VH: EVQLQQPGTELVRPGTSVKLSCKASGYTFTNFWMHWVKQRPGQGLEWIGVINPSDTYTKFNQKFRGKATLTVDTSSSTAYMQLSSLTSEDSAVYFCARPTVGLDYWGQGTSVTVSS VL: DIVMTQSQKFMPTSVGDRVSVTCKASQNVGSNVAWYQQKSGQSPKALIYSASHRYSGVPDRFTGSGSGTDFTLTISNVQSEDLAEYFCQQYNSYPYTFGGGTKLEIK", 0.0013],
  ["4A4 (antibody, human IgG1, V domains shown, chimeric, human IgG1/kappa; also called Clone 4A4) VH: EVKLMESGPGLVAPSQSLSITCTVSGFSLTSYPINWVRQPPGKGLEWLGVIWTGGSTNYNSALKSRLSISRDNSKSQVFLKMNSLQTDDTARYYCARWDGYFGAFDYWGQGTTVTVSS VL: DIVMTQTTSSLSASLGDRVTISCRASQDISKYLNWYQQKPDGTVKLLIYYTSRLHSGVPSRFSGSGSGTDYSLTISNLEQEDIATYFCQQSLSLPYTFGGGTRLEIK", 0.0012],
  ["3C11 (antibody, human IgG1, V domains shown, chimeric, human IgG1/kappa; also called Clone 3C11) VH: EVQLQQSGADLMKPGASVKLSCKATGYTFTGYWIEWVKQRPGHGLEWIGEIFPGSVSTNYNEKFKGKATFTADTSSNTAYMQLSSLTTEDSAIYYCARSPIYYDYADYWGQGTTLTVSS VL: DIVLSQSHKFMSTSVGDRVSITCKASQDVGTAVAWYQQKPGQSPKALIYLASNRHTGVPDRFTGSGSGTDFTLTISNVQSEDLAEYFCQQYNSYPYTFGGGTRLEIK", 0.0013]
]}

Alright, here's another binder for you.
Per the records, this binder ( 1D2 (antibody, human IgG1, V domains shown, chimeric, human IgG1/kappa; also called Clone 1D2) VH: EVHVKQSGPELKKPGETVTISCKASGYTFTTYGMTWVRQAPGKDLEWMGWINTHSGVPIYADDFKGRFAFSLETSAGTAYLQINNLKNEDTATYFCTRRGRLGHYFDYWGQGTSVTVSS VL: DIVMTQSQKFMSTSVGDRVSVTCKASQNVGTNVAWYQQKPGQSPKLLIYWASTRHTGVPDRFTGSGSGTDFTLTISNVQSEDLADYFCQQYSSYPYTFGGGTKLELK ) has koff equal to 0.00024
